- System: rat erythrocytes
- Experiment Summary: Hemolysis assay
- Assay type: cell-based
- Condition Context: pH 7.4
Square brackets hold non-standard residues; d marks the D form. Peptide text beside a SMILES is read from it. Gly(N(CH2)2(3-indolyl)) = O=C(O)CNCCc1c[nH]c2ccccc12; Nspe = C[C@H](NCC(=O)O)c1ccccc1; Nphe = O=C(O)CNCc1ccccc1; Nlys = NCCCCNCC(=O)O
Property Label: HC50 (µM)
Note: unit µM is implicit; provide only the numeric part.

Consider the reported HC50 for these compounds:
C[C@@H](c1ccccc1)N(CC(N)=O)C(=O)CN(C(=O)CN(CCCCN)C(=O)CN(C(=O)CN(CCc1c[nH]c2ccccc12)C(=O)CN(CCCCN)C(=O)CN(CCc1c[nH]c2ccccc12)C(=O)CN(C(=O)CN(CCCCN)C(=O)CN(C(=O)CN(C(=O)CNCCCCN)[C@@H](C)c1ccccc1)[C@@H](C)c1ccccc1)[C@@H](C)c1ccccc1)[C@@H](C)c1ccccc1)[C@@H](C)c1ccccc1 = 60.9
C[C@@H](c1ccccc1)N(CC(=O)N(CCc1c[nH]c2ccccc12)CC(=O)N(CCCCN)CC(=O)N(CC(=O)N(CC(=O)N(CCCCN)CC(=O)N(CC(=O)N(CC(=O)N(CCCCN)CC(=O)N(CC(=O)N(CCc1c[nH]c2ccccc12)CC(N)=O)[C@@H](C)c1ccccc1)[C@@H](C)c1ccccc1)[C@@H](C)c1ccccc1)[C@@H](C)c1ccccc1)[C@@H](C)c1ccccc1)C(=O)CNCCCCN [peptoid 16] (H-[Nlys][Nspe][Gly(N(CH2)2(3-indolyl))][Nlys][Nspe][Nspe][Nlys][Nspe][Nspe][Nlys][Nspe][Gly(N(CH2)2(3-indolyl))]-NH2) = 25.0
C[C@@H](c1ccccc1)N(CC(=O)N(CCCCN)CC(=O)N(CC(=O)N(CC(=O)N(CCCCN)CC(=O)N(CC(=O)N(CC(=O)N(CCCCN)CC(=O)N(CC(=O)N(CC(N)=O)Cc1ccccc1)Cc1ccccc1)[C@@H](C)c1ccccc1)[C@@H](C)c1ccccc1)[C@@H](C)c1ccccc1)[C@@H](C)c1ccccc1)C(=O)CN(C(=O)CNCCCCN)[C@@H](C)c1ccccc1 [peptoid 44] (H-[Nlys][Nspe][Nspe][Nlys][Nspe][Nspe][Nlys][Nspe][Nspe][Nlys][Nphe][Nphe]-NH2) = 28.6
C[C@@H](c1ccccc1)N(CC(N)=O)C(=O)CN(C(=O)CN(CCCCN)C(=O)CN(C(=O)CN(C(=O)CN(CCCCN)C(=O)CN(C(=O)CN(C(=O)CN(CCCCN)C(=O)CN(Cc1ccccc1)C(=O)CN(Cc1ccccc1)C(=O)CNCCCCN)[C@@H](C)c1ccccc1)[C@@H](C)c1ccccc1)[C@@H](C)c1ccccc1)[C@@H](C)c1ccccc1)[C@@H](C)c1ccccc1 = 36.5
C[C@@H](c1ccccc1)N(CC(N)=O)C(=O)CN(C(=O)CN(CCCCN)C(=O)CN(CCc1c[nH]c2ccccc12)C(=O)CN(C(=O)CN(CCCCN)C(=O)CN(C(=O)CN(C(=O)CN(CCCCN)C(=O)CN(C(=O)CN(C(=O)CNCCCCN)[C@@H](C)c1ccccc1)[C@@H](C)c1ccccc1)[C@@H](C)c1ccccc1)[C@@H](C)c1ccccc1)[C@@H](C)c1ccccc1)[C@@H](C)c1ccccc1 = 28.4

Please turn your attention to the following entry.
Reported HC50, compound C[C@@H](c1ccccc1)N(CC(=O)N(CCCCN)CC(=O)N(CC(=O)N(CC(=O)N(CCCCN)CC(=O)N(CC(=O)N(CC(=O)N(CCCCN)CC(=O)N(CCc1c[nH]c2ccccc12)CC(=O)N(CCc1c[nH]c2ccccc12)CC(N)=O)[C@@H](C)c1ccccc1)[C@@H](C)c1ccccc1)[C@@H](C)c1ccccc1)[C@@H](C)c1ccccc1)C(=O)CN(C(=O)CNCCCCN)[C@@H](C)c1ccccc1 [peptoid 11] (H-[Nlys][Nspe][Nspe][Nlys][Nspe][Nspe][Nlys][Nspe][Nspe][Nlys][Gly(N(CH2)2(3-indolyl))][Gly(N(CH2)2(3-indolyl))]-NH2) : ____ 22.2
